Value source: PubChem BioAssay AID1159580

experiment: chemical genetic growth profiling, strain panel (AID 1159580);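 note: tested at 20 µM; growth read once vehicle control cultures reached saturation at 30 °C; 1 = growth at the plate median or of vehicle wells; lower values mean less growth of the strain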; settings: S. cerevisiae deletion strains, growth OD, locus YHR079C, strain IRE1 (second series), hits give low values
Out of some 5,500 compounds screened, about 2,000 (36%) were called active. About 18% were inconclusive and are not listed. This is one part of the list.
result-type: normalized growth
Numbers only.

>>> result_value("Cn1c([N+](=O)[O-])cnc1COC(N)=O")
0.991

Below are 3 compounds. Give each one its normalized growth.
1. O=c1ccc2cc(O[C@@H]3O[C@H](CO)[C@@H](O)[C@H](O)[C@H]3O)c(O)cc2o1
2. COc1ccc2c(=O)c(-c3cc4c(cc3OC)OCO4)coc2c1
3. Cc1c(N(C)CS(=O)(=O)O)c(=O)n(-c2ccccc2)n1C

RESULT:
1: 0.99; 2: 1.03; 3: 0.986
